Tested on: OVCAR-3 ovarian
Experiment: NCI tumour cell line growth inhibition, 48 h

{"molecule": "CCOC(=O)N1C2C=C(C)C(ON2C(=O)c2ccccc2)C2C(C)C(=O)N21 (stereo not given)", "tested-target": "OVCAR-3 ovarian", "TGI": "> 100 µM"}
{"molecule": "Cc1ncc([N+](=O)[O-])n1CCN(C)C(=O)CCCn1ccnc1[N+](=O)[O-]", "tested-target": "OVCAR-3 ovarian", "TGI": "> 100 µM"}
{"molecule": "CC1(Cl)CC2OC3(Br)C=CC(C)(O)C2(CC1Br)C3(C)C (stereo not given)", "tested-target": "OVCAR-3 ovarian", "TGI": "> 100 µM"}
{"molecule": "C#CCN(Cc1nc2cc(C(F)(F)F)ccc2nc1-c1ccccc1)c1ccc(OC(F)(F)F)cc1", "tested-target": "OVCAR-3 ovarian", "TGI": "> 100 µM"}
{"molecule": "Nc1ncnc2c1ncn2Cc1ccc(C23CC4CC(CC(C4)C2)C3)c(OCc2cc(F)c(F)cc2F)c1", "tested-target": "OVCAR-3 ovarian", "TGI": "> 100 µM"}
{"molecule": "O=C1N(c2ccccc2)C2(c3ccccc3)CC3CCCC13S2 (stereo not given)", "tested-target": "OVCAR-3 ovarian", "TGI": "> 100 µM"}
{"molecule": "CCOc1ccc(NC(=O)C2=C(C)NC(C)=C(C(=O)Nc3ccc(OCC)cc3)C2c2ccc(O)c(OC)c2)cc1", "tested-target": "OVCAR-3 ovarian", "TGI": "> 100 µM"}
{"molecule": "CCN(CC)CCCC(C)Nc1ccnc2cc3ccccc3cc12 (stereo not given)", "tested-target": "OVCAR-3 ovarian", "TGI": "> 100 µM"}
{"molecule": "COC(=O)C(C)(C)OCc1ccc(C2NC(=O)N(c3cccc(Cl)c3)C(=O)N2c2cccc(Cl)c2)cc1 (stereo not given)", "tested-target": "OVCAR-3 ovarian", "TGI": "> 100 µM"}
{"molecule": "CCOC(=O)C1C(c2ccc(OC)cc2)c2c([nH]n(-c3ccccc3)c2=O)CC1(O)OCC (stereo not given)", "tested-target": "OVCAR-3 ovarian", "TGI": "> 100 µM"}

----------
Tested on: KM12 colon
Assay: NCI tumour cell line growth inhibition, 48 h
readout-kind: TGI

{"compound": "O=C(NCCCCN(CCCNC(=O)C(F)(F)F)Cc1ccc2ccccc2c1)C(F)(F)F", "tested-target": "KM12 colon", "readout-kind": "TGI", "result": "32.1 µM"}
{"compound": "CSc1cccc(-n2c3nc(=O)n(C)c(=O)c-3nc3ccccc32)c1", "tested-target": "KM12 colon", "readout-kind": "TGI", "result": "43.2 µM"}
{"compound": "COc1cc(OC)cc(OCc2ccc3nc(-c4ccccc4)c(Cl)nc3c2)c1", "tested-target": "KM12 colon", "readout-kind": "TGI", "result": "> 100 µM"}
{"compound": "CC(C)Nc1ccc(Nc2ccccc2)cc1", "tested-target": "KM12 colon", "readout-kind": "TGI", "result": "> 100 µM"}
{"compound": "O=C1[C@@H]2C(c3ccc(Cl)cc3Cl)=NO[C@@H]2C(=O)N1c1ccc(Cc2ccc(N3C(=O)[C@H]4C(c5ccc(Cl)cc5Cl)=NO[C@H]4C3=O)cc2)cc1", "tested-target": "KM12 colon", "readout-kind": "TGI", "result": "> 100 µM"}
{"compound": "Cc1cc2c(cc1Cl)SC(c1ccccc1)C(=O)NS2(=O)=O (stereo not given)", "tested-target": "KM12 colon", "readout-kind": "TGI", "result": "> 100 µM"}
{"compound": "CCC1C(=O)OCc2c1cc1n(c2=O)Cc2cc3ccccc3nc2-1 (stereo not given)", "tested-target": "KM12 colon", "readout-kind": "TGI", "result": "> 100 µM"}
{"compound": "CS(=O)(=O)OC1CN2CCC1CC2 (stereo not given)", "tested-target": "KM12 colon", "readout-kind": "TGI", "result": "> 100 µM"}
{"compound": "COC(=O)C1CCOC(C)N1C(=O)OC(C)(C)C (stereo not given)", "tested-target": "KM12 colon", "readout-kind": "TGI", "result": "> 100 µM"}
{"compound": "CCOC(=O)[C@]12C(=C(c3ccccc3)O[C@H]3C=CCC[C@H]31)C(=O)C(=O)N2c1ccccc1", "tested-target": "KM12 colon", "readout-kind": "TGI", "result": "> 100 µM"}
